- SYSTEM TESTED: Pantothenate synthetase (Mycobacterium tuberculosis (strain ATCC 25618 / H37Rv)) (UniProt P9WIL5)
- Sequence (P9WIL5 whole entry, looked up): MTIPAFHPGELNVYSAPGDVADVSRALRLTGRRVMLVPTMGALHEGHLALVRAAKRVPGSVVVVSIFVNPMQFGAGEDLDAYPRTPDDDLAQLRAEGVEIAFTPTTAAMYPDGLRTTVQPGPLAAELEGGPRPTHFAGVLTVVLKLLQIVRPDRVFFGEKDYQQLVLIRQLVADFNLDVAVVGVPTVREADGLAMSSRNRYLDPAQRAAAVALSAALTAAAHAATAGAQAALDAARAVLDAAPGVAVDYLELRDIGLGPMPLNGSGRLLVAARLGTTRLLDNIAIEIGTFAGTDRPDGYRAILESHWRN
- MEASUREMENT PROTOCOL: Coupled enzyme confirmation of inhibitors against recombinant Mtb PanC (AID 375);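 further: 0% = full reaction with vehicle and 100% = no enzyme background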
- SETTINGS: coupled enzyme assay; at 10 µM, active compounds read high
Where a SMILES comes first, the peptide text is derived from it. The star is where a group is joined. Boc = CC(C)(C)OC(=O)*
Listed compounds paired with reported inhibition

COMPOUND	inhibition / %
Cc1cccc(N2CCN(C(=O)C3CCCN(S(=O)(=O)c4c(C)noc4C)C3)CC2)c1C (stereo unspecified)	0
C=CCc1cccc2cc(C(=O)NCc3cccnc3)c(=O)oc12	1
C=CCSC1=C(C#N)C(c2ccccc2OCC)CC(=O)N1 (stereo unspecified)	0
O=C1CC(Sc2nnc(-c3ccccc3)o2)C(=O)N1c1ccccc1 (stereo unspecified)	0
Cc1ccnc(NS(=O)(=O)c2ccc(NC(=O)Cc3cccs3)cc2)n1	3
CCc1cc2c(=O)c(-c3nc4ccccc4[nH]3)coc2cc1OC(=O)N1CCOCC1	7
CC(NC(=O)OC(C)(C)C)C(=O)N1CCCC1C(=O)NC(Cc1ccccc1)C(N)=O (stereo not drawn) (Boc-Ala-Pro-Phe-NH2; configuration not given here)	7
O=C(NCC1CCCO1)c1ccc(N2CCCCC2)nc1 (stereo unspecified)	0
CCOC(=O)N1CCN(C(=O)c2ccc(CS(=O)(=O)c3ccc(OC)cc3)o2)CC1	1
Cc1c(CNCc2cccs2)c(C(=O)O)c(C)n1Cc1ccccc1	0
COc1ccc(C2(C(=O)N3CCCC3)CCOCC2)cc1OC	6
